- Procedure Text: solubility in an aqueous medium at pH 1
- Format: physicochemical
- Setup Conditions: read-out: solubility
Measurement Name: solubility (µg/mL)
Give just the numeric value; µg/mL need not be written.

The measured solubility associated with Cn1c(=NN)sc2cc(S(=O)(=O)O)ccc21 [MBTH sulfonate] reads 6000

---

- Procedure Text: solubility in an aqueous medium at pH 1
- Assay type: physicochemical
- Setup Conditions: read-out: solubility in an aqueous medium
Measurement Name: solubility (mg/mL)
Response body: numeric value in mg/mL, unit text excluded.

Looking up Cn1c(=NN)sc2ccccc21 [MBTH, 3-methylbenzothiazolonehydrazone] , I found its solubility recorded as 48

Each recorded value in this set is attributed to patent US4101381A.
